target: CCK-B (Cavia porcellus); construct: guinea pig brain (CCK-B); from tissue; host or cells: guinea pig brain; experiment: displacement of specific 125I-CCK from guinea pig brain (CCK-B receptor binding); details: read-out: CCK RECEPTOR BINDING RESULTS IC50 125I-CCK Brain
Sequence (H0VZC5 1-426): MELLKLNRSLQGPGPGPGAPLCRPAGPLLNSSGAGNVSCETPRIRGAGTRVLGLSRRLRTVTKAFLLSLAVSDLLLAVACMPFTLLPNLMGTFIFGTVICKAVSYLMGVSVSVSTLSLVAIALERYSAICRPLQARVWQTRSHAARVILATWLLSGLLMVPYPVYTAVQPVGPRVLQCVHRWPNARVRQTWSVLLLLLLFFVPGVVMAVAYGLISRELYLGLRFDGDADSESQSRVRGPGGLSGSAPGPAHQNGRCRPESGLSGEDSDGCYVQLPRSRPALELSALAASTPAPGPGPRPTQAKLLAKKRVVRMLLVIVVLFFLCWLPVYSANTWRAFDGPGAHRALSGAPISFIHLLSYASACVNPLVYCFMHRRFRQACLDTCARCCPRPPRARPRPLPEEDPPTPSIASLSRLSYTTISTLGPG
Counter-ions that a name gives are not always drawn.
measurement-type: IC50 (nM)

Reference set (3 entries):
1) Cc1cccc(NC(=O)NC2N=C(N(C)Cc3ccccc3)c3ccccc3N(C)C2=O)c1 (racemic)
10.3
2) Cc1cccc(NC(=O)NC2N=C(N3C[C@H]4CCCC[C@H]4C3)c3ccccc3N(C)C2=O)c1 (single isomer, unassigned; (-)) [Example 58, hydrochloride]
2
3) Cc1cccc(NC(=O)NC2N=C(N3CCC(C)CC3)c3ccccc3N(C)C2=O)c1 (single isomer, unassigned) [8 (enantiomer B)]
23.2

I = Cc1cccc(NC(=O)NC2N=C(N(C)C3CCCCCC3)c3ccccc3N(C)C2=O)c1 (racemic) [Example 66]
II = Cc1cccc(NC(=O)NC2N=C(N(C)C3CCN(C)CC3)c3ccccc3N(C)C2=O)c1 (racemic)
III = Cc1cncc(NC(=O)NC2N=C(N(C)C3CCCCCC3)c3ccccc3N(C)C2=O)c1 (racemic)
Hey, can you sort those compounds up there by IC50, smallest first? Record the ranking as a list of labels in the requested order. I, III, II

====

molecular target: CCK-A (Rattus norvegicus, UniProt P30551); assay: biochemical; assay type: binding; conditions: rat pancreas (CCK-A), 125I-CCK; read-out: CCK RECEPTOR BINDING RESULTS IC50 125I-CCK Pancreas
Sequence (P30551 whole entry): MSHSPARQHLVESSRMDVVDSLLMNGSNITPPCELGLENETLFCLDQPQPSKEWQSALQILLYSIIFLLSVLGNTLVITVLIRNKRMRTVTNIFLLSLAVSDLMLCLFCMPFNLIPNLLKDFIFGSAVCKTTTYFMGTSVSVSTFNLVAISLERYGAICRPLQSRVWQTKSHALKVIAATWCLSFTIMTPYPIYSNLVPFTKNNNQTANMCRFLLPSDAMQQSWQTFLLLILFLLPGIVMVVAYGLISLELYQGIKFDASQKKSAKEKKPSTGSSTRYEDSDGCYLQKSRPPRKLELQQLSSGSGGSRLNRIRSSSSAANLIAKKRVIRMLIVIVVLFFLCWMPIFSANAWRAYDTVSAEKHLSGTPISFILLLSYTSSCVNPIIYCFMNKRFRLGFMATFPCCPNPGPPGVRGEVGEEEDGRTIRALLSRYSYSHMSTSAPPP
Structures can show the parent of a compound that is named as a salt.
measurement-type: IC50 (nM)

1. CC(C)CN1C(=O)C(NC(=O)c2cc3ccccc3[nH]2)N=C(N2CCC(C)CC2)c2ccccc21 (racemic) [Example 95]
11.6

1 = Cc1cccc(NC(=O)NC2N=C(N(C)C3CCCCCCC3)c3ccccc3N(C)C2=O)c1 (racemic) [Example 83]
2 = CC(C)CN1C(=O)C(NC(=O)c2cc3ccccc3[nH]2)N=C(N2CCCCCC2)c2ccccc21 (racemic) [Example 90]
3 = Cc1cccc(NC(=O)NC2N=C(N(C)C3CCCCCC3)c3ccccc3N(C)C2=O)c1 (single isomer, unassigned; (+)) [Example 68, Hydrochloride]
Hey, can you sort those molecules up there by IC50, smallest first? To answer, arrange all of the labels according to the requested order. 2, 3, 1

====

target: CCK-B (Cavia porcellus); construct: guinea pig brain (CCK-B); from tissue; host or cells: guinea pig brain; assay: displacement of specific 125I-CCK from guinea pig brain (CCK-B receptor binding); conditions: read-out: CCK RECEPTOR BINDING RESULTS IC50 125I-CCK Brain
Structures can show the parent of a compound that is named as a salt.
measurement-type: IC50 (nM)

Answered examples (4):
1) Cc1cccc(NC(=O)NC2N=C(N3C[C@H]4CCCC[C@H]4C3)c3ccccc3N(C)C2=O)c1 (single isomer, unassigned; (+)) [Example 59, hydrochloride]
144
2) Cc1cccc(NC(=O)NC2N=C(N3CCC(C)CC3)c3ccccc3N(C)C2=O)c1 (racemic) [Example 7]
1.64
3) Cc1cccc(NC(=O)NC2N=C(N3CCC(C)(C)CC3)c3ccccc3N(C)C2=O)c1 (racemic) [Example 9]
0.21
4) COC1CCN(C2=NC(NC(=O)Nc3cccc(C)c3)C(=O)N(C)c3ccccc32)CC1 (racemic) [Example 11]
4.22

I = CCCN1C(=O)C(NC(=O)Nc2cccc(C)c2)N=C(N(C)C2CCCCC2)c2ccccc21 (single isomer, unassigned; (+)) [Example 62]
II = Cc1cccc(NC(=O)NC2N=C(N3CCC(C)(C)CC3)c3ccccc3N(C)C2=O)c1 (single isomer, unassigned) [10 (enantiomer B)]
Given the listed records, identify the one among I and II with higher IC50. Mark your selection by writing its label. I
(I: 35.2 nM, II: 12.6 nM)
